pKi: −log10 of the molar value. Counter-ions that a name gives are not always drawn.
Reported pKi for target or system Human Polθ polymerase domain (aa1820-2590) (Homo sapiens, UniProt O75417), by entry.
Value kind: pKi

Reference set (4 entries):
Cc1cc(C(F)(F)F)cc(N2C(=O)C[C@@H]3CN(C[C@@H]4CCCN4)c4c(Cl)cccc4N(C)C(=O)[C@H]32)n1 (racemic) [Example 107b]; 8.28
Cc1cc(C(F)(F)F)cc(N2C(=O)C[C@@H]3CN(Cc4ccncc4)c4c(C)cccc4N(C)C(=O)[C@H]32)n1; 8.79
Cc1cc(C(F)(F)F)cc(N2C(=O)C[C@@H]3CN(C[C@H]4CCN(C)[C@@H](C)C4)c4c(Cl)cccc4N(C)C(=O)[C@H]32)n1 (single isomer, unassigned) [Example 126a]; 8.81
Cc1cc(C(F)(F)F)cc(N2C(=O)C[C@@H]3CN(C[C@@H](O)CN(C)C)c4c(Cl)cccc4N(C)C(=O)[C@H]32)n1 (racemic) [Example 132a]; 8.20

[1] Cc1cc(C(F)(F)F)cc(N2C(=O)C[C@@H]3CN(CCN4CCOC[C@H]4C)c4c(Cl)cccc4N(C)C(=O)[C@H]32)n1
[2] Cc1cc(C(F)(F)F)cc(N2C(=O)C[C@@H]3CN(Cc4cn5c(n4)C(C)N(C)CC5)c4c(C)cccc4N(C)C(=O)[C@H]32)n1 (single isomer, unassigned) [Example 116a]
[3] Cc1cc(C(F)(F)F)cc(N2C(=O)C[C@@H]3CN(CC4CCNCC4)c4c(F)cccc4N(C)C(=O)[C@H]32)n1 [Example 77, Hydrochloride]
[in] Arrange by pKi, high to low. I would appreciate it if you listed the labels in the requested order.
[out] 2, 1, 3
(2: 9.20, 1: 8.75, 3: 7.95)

[1] Cc1cc(C(F)(F)F)cc(N2C(=O)C[C@@H]3CN(CCN4C[C@@H]5C[C@H]4CN5)c4c(C)cccc4N(C)C(=O)[C@H]32)n1 [Example 59, dihydrochloride]
[2] Cc1cc(C(F)(F)F)cc(N2C(=O)C[C@@H]3CN(CCN4CC5CCC(C4)N5C)c4c(C)cccc4N(C)C(=O)[C@H]32)n1 [Example 60, dihydrochloride]
[3] Cc1cc(C(F)(F)F)cc(N2C(=O)C[C@@H]3CN(C[C@H]4CCNC4)c4c(C)cccc4N(C)C(=O)[C@H]32)n1 [Example 104, hydrochloride]
[in] Arrange by pKi, high to low. I would appreciate it if you listed the labels in the requested order.
[out] 2, 1, 3
(2: 9.20, 1: 8.95, 3: 8.53)
